The values you see were collected from ChEMBL document CHEMBL5215009.

Biological target: Peroxisome proliferator-activated receptor alpha (Homo sapiens, UniProt Q07869)
Sequence (Q07869 whole entry): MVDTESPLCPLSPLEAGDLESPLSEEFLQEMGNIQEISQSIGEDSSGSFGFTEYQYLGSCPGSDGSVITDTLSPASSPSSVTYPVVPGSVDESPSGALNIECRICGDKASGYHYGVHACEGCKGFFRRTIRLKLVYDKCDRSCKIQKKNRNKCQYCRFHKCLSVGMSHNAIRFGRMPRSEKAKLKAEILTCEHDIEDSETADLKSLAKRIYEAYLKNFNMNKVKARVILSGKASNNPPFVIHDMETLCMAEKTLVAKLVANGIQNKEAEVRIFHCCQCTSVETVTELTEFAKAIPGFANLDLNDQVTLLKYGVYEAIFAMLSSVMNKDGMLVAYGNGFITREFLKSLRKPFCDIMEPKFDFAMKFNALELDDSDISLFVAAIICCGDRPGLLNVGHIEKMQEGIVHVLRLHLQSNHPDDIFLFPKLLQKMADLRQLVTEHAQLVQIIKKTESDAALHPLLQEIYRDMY
Test: Binding affinity to PPARalpha (unknown origin) assessed as inhibition constant by Cheng-Prusoff equation analysis
MEASURED PROPERTY: Ki (µM)
Unit µM implied. Number only.

Note Ki for the molecule shown: COc1cccc2ccc(-c3cc(-c4ccc5cccc(OC)c5c4O)c4cccc(OC)c4c3O)c(O)c12
9.4
